Test system: MS2 coat protein
test description: apparent KD of MS2 coat protein; designed switch direction (-1 OFF switch, 1 ON switch): -1; higher = weaker reporter binding
assay conditions: input ligand: none
value type: apparent KD of MS2 coat protein (µM)
Numbers only, in µM.

INSERT INTO assay_data (primary_sequence, test_value) VALUES
  ('AUUUAAUUUAAUAAGAUCACAUGAGGAUCACCCAUGUUAUAAUAGGAUAUCAGCUCGAUUAGAGCUGAGAAGGAUUAUAACAUG [ExNG3/9-A1] (Eterna round: R96, puzzle: Exclusion NG 3)', 0.0288),
  ('AGGUGCUUCUGGAGACAUGAGGAUCACCCAUGUUGAGUUAGCGAGGAUAUCGGUAACGCAUGUGAUGAGAAGGCGCAAACCAAU [Ex NG3 #47] (Eterna round: R96, puzzle: Exclusion NG 3)', 0.047),
  ('GAAAAUCGUAAGGAUAUCAGCGAAGAAGUACACUGAGAAGGUAUGACAUGAGGAUCACCCAUGUAGCCCGCUUA [Eternabot (L1) Solution 38] (Eterna round: R97, puzzle: Exclusion 6)', 0.0132),
  ('CCUUACCGAGGAUAUACAUGAGGAUCACCCAUGUGAUCCUAAGGCUGAUCAAGCCUAUGUAGAAGGCGCAAAUC [salish99_ex3_r4_004] (Eterna round: R97, puzzle: Exclusion 3)', 0.13),
  ('CUUGUGUUAGGAUAUGUUAAGCCGCCACCUGGCGGAUCAGGACAGAAGGAACAUGAGGAUCACCCAUGUAAAAG [Inenxele] (Eterna round: R97, puzzle: Exclusion 4)', 0.105);

I need apparent KD of MS2 coat protein for every entry listed below, if you could help.
1. UAUCAUCAUGUAGGAUAUGCGUGGCGAAGCUAUGCAGAAGGACAUGAGGAUCACCCAUGUUCUUGCGUCUGCGUACAGAUGCAA [Mat - Exclusion NG 1 - Mod of JL - D71] (Eterna round: R96, puzzle: Exclusion NG 1)
2. CCAAGCUUAUUCAUUAACAACAUGAGGAUCACCCAUGUAUAGGCAAUUAUGUCUGGGCUCUUUAGUGCUCGUCUUAU [Sensor-V1 #24] (Eterna round: R97, puzzle: Sensor, turn-off variant 1)
3. CGCUGGACAGGAUAUGUUCUUGGGCACUUGAGGAUCACCCAAGUCAUCGGGACAUCAGGCACAGAAGGGUUUUUGG [salish99_ex5_r4_027] (Eterna round: R97, puzzle: Exclusion 5)

Completion:
[0.0667, 0.0198, 0.0205]

Prompt: Dear colleague, I am looking for the recorded apparent KD of MS2 coat protein of the following sequence: CUGUACUGAGGAUAUACAUGAGGAUCACCCAUGUGUUCCAGCUAGGAAACUAGCAAAAGUAGAAGGCAGUACAG [Mat - Exclusion 3 - Eli Mod - D65] (Eterna round: R97, puzzle: Exclusion 3)
Completion: 0.0305

====

Test system: MS2 coat protein
test description: apparent KD of MS2 coat protein; designed switch direction (-1 OFF switch, 1 ON switch): -1; higher = weaker reporter binding
assay conditions: Eterna round: R95; input ligand: microRNA oligo, concentration not stated
Classification field: enter Condition met for apparent KD of MS2 coat protein values not below 30 nM, Condition not met for values below it.

Worked set:
INSERT INTO results (primary_sequence, cat) VALUES
  ('ACUAGAUGAGGAUAUGCACAUUUUAGUGUUCCUCUAGAUUAACAUGAGGAUCACCCAUGUAGAAGGCGUCAUUU [Exclusion 2 - 13] (puzzle: Exclusion 2)', 'Condition met'),
  ('CAGGAUAGAGGAUAUACGUAGAUACAGAUUCAUGUAAUCCUACAUGAGGAUCACCCAUGUAGAAGGCUAUCCUG [Fiskers Ex 2 - 18] (puzzle: Exclusion 2)', 'Condition not met'),
  ('AGAAAUGCCCAUGGCCGCAAGCCUUUUGCUUGUCUUACCACAUGAGGAUCACCCAUGUGACAUGGGCUCCUGAUAAU [Zace] (puzzle: Sensor v3, turn-off variant 2)', 'Condition not met');

Now consider the entry below.
Prompt: Can AUAUUAAGUGUGAGGAUAUGCUGGUCCUUGGAUCAGCAGAAGGCACAUGAGGAUCACCCAUGUAAUAUAUUUAU [Mat - Exclusion 4 - JL Mod - D47] (puzzle: Brourd's mod of Exclusion 4) be said to have apparent KD of MS2 coat protein at or above 30 nM?
Completion: Condition met

====

System: MS2 coat protein
test description: apparent KD of MS2 coat protein; higher = weaker reporter binding
assay conditions: Eterna round: R107; input ligand: arginine 13.2 mM
value type: apparent KD of MS2 coat protein (µM)
Give bare numbers, in µM.

For the 4 sequences below, give their apparent KD of MS2 coat protein values.
1. CGAUAUGGGACGGCCGCCACUAUUAUGUAACAAAAUAAACAUGAGGAUCACCCAUGUACAUGGGAUAGGACCGGGUCCUAUAACG [#22 Same State - Tryptophan B]
2. GGUCUGAAAACCGAUCAAAGAUCGGAAGAUACCAGAGGGUGAUCCCUCCCUUGGCAGCUUCACAUGAGGAUCACCCAUGUAGACC [Omei inspired #BothOrNeither]
3. AAACGUUGCUGCGAUACCAGACAUGAGGAUCACCCAUGUACCAAGAAAACGUACAUAAAUGUCCCUUGGCAGCGCAGCAACGAAA [MAT - Exclusion Theophlline B - Mod of Eli - D28]
4. GGGUGCGGCACGGCCGCCACUGCGGUGGUGUGACAUGAGGAUCACCCAUGUUGUCAUGCGGCCCUUAGGACCGGGUGCCGUGCCC [#1 Exclusion - Tryptophan B Attempt #13 (HarryS)]

Completion:
0.0296
0.0293
0.141
0.0395

====

System: K4 kissing-loop RNA reporter;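 note: bound reporter read as fluorescence of individual clusters on recovered sequencing chips by microscopy, with normalized cluster intensities fitted with a binding model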
test description: apparent KD of K4 kissing-loop reporter; higher = weaker reporter binding
assay conditions: Eterna round: R107; input ligand: theophylline 20 uM
value type: apparent KD of K4 kissing-loop reporter (nM)
Numbers only, in nM.

Worked set:
INSERT INTO assay_data (primary_sequence, value_type, test_value) VALUES
  ('AGGCCGAGCCAAGGAUAUUGUCAGAGUGAUGUUCGCCAAUACUCCAGCCGCGCCUCAUCAGCUGAGCAAGAAGGUGGUCCUCUCA [theeternabot_exclusion_KL_FMN_B_47]', 'apparent KD of K4 kissing-loop reporter', 207),
  ('UGCCGCAAGGCGAGCGCUCCCACUCCGGAAGGAGCGCCCGUAAGGGCAGGUAGGUCGCCGGAGUGAUGUUCCGGUGGAGGGCUCG [#2 Exclusion - Arginine A Attempt #24 (Inspired by Omei)]', 'apparent KD of K4 kissing-loop reporter', 398),
  ('UCCUGCAAUGGACCACGAAAGUGGAUCGAUACCAGAGUCGAAAGACUCCCUUGGCAGCGAGUGAUGUUCGAAGCAGGUAAAUAAA [#SwitchBubble 21 #K4Late]', 'apparent KD of K4 kissing-loop reporter', 410),
  ('CCAACAACGAGUGAUGUUCGUUGAUCAGAAGGAGCGUCAAUAAUGACAGGUAGGUCGCUGAUAAUUGGAAAUAGGGCAAUAGCUU [Same State Arginine A GF12]', 'apparent KD of K4 kissing-loop reporter', 120),
  ('UGGAGUUGACGAAAAGUCAACUCCCGAGAAGGAGCGGACGAAAGUCCAGGUAGGUCGCUCGCUACCAGUGAUGUUGGUACAUAAA', 'apparent KD of K4 kissing-loop reporter', 147);

Prompt: What is its apparent KD of K4 kissing-loop reporter for K4 kissing-loop RNA reporter? Entry: UGUACCGAGUCAGGAUAUCAUAAAGUUGGAGUGAUGUUCCAAUAACGACUGACAAAGUCGGUCGAUUGAGAAGGGACUUGGUACU [FmnBS 9 #SwitchBubble #StaticStem]
Completion: 143

====

Tested on: MS2 coat protein
test description: apparent KD of MS2 coat protein; designed switch direction (-1 OFF switch, 1 ON switch): 1; higher = weaker reporter binding
assay conditions: input ligand: FMN 200 uM
Classes by apparent KD of MS2 coat protein: lower bin = under 30 nM, middle bin = from 30 nM up to 100 nM, upper bin = 100 nM and over

Would you please look over these solved cases?
INSERT INTO measurements (primary_sequence, cat) VALUES
  ('UGUUGGAAGUGAGGAUAUGGGAAAGGAAGUGUACCAGAAGGCACAUCUAGCCGGAACAUGAGGAUCACCCAUGUACCACACUAC [PowerStrip SSNG 1.15] (Eterna round: R96, puzzle: Same State NG 1)', 'upper bin'),
  ('AGUCCAGCCUGAGCUGGACAAAAGCAUGUACAUGAGGAUCACCCAUGUUCAUGUACAAGCUUUUUGCUCGUCUUAAA [JL zipper 52] (Eterna round: R96, puzzle: Sensor for hsa-mir-208a)', 'upper bin'),
  ('CAAACCGACACAGGAUAUGGAGCCGACCGGCACAUGAGGAUCACCCAUGUGCUACAGGUAUGUAGCUAGAAGGGUGAAGGUAUC [Eternabot solution 29] (Eterna round: R96, puzzle: Same State NG 2)', 'middle bin'),
  ('ACUCAGUACAAUUUAGAUCUACAUGAGGAUCACCCAUGUACUGAGGAUAUCAGCUCGAUUAGAGCUGAGAAGGCAGUUGUACUA [SSNG3/10-A2] (Eterna round: R96, puzzle: Same State NG 3)', 'middle bin'),
  ('ACAUAGGGAACAGGAUAUGGGAAAAUUCCCUACAUGAGGAUCACCCAUGUCCGUAGGGACAACAUCCAGAAGGGUUACCACAUA [Eternabot solution 1] (Eterna round: R96, puzzle: Same State NG 2)', 'upper bin');

Prompt: // return the class label for GGAAUAUUUACAGGAUAUGAGUUGUAAAGUCGAUCAGAAGGGUAGAUGUCUUACACGGUUUGUUACAUGAGGAUCACCCAUGUU [SameState NG1 #18] (Eterna round: R96, puzzle: Same State NG 1)
Completion: middle bin

Prompt: And the next one, GGAAGGAGGUCAGGAUAUGAACGGAAGGUACAUGAGGAUCACCCAUGUUACGGAGGAAGGAAACGUUAGAAGGGACAAGGAAGG [AK SSNG2-V2-3] (Eterna round: R96, puzzle: Same State NG 2) ?
Completion: lower bin

Prompt: Same question, UUCCCAGCGGGAGGAUAUGGUGCCUUGUUGGUGCUAGAAGGUCCAACAUGAGGAUCACCCAUGUGGGAGUGGUCUAAUGACCUC [SS NG10LRO08] (Eterna round: R96, puzzle: Same State NG 1) this time
Completion: upper bin

Prompt: Repeat with AACCUAGGCAGAGGAUAUCUGGACGCGCGCACCAGAGAAGGCUGCGAGCCCUGAAUAUACAUGAGGAUCACCCAUGUCCCGCAC [Eternabot solution 15] (Eterna round: R96, puzzle: Same State NG 1)
Completion: middle bin

Prompt: // next record GCGGAAACUCACAUGAGGAUCACCCAUGUUCCGGAAACGGCACAGGAUAUCUGUCCGAAAAGGUCAGAGAAGGGUGAAAUCCGC [Fiskers NG3ss - 92] (Eterna round: R96, puzzle: Same State NG 3)
Completion: upper bin
